Each item that follows carries a reported IC50.
Molecular target: Interleukin-23 receptor (Homo sapiens)
Sequence (Q5VWK5 whole entry): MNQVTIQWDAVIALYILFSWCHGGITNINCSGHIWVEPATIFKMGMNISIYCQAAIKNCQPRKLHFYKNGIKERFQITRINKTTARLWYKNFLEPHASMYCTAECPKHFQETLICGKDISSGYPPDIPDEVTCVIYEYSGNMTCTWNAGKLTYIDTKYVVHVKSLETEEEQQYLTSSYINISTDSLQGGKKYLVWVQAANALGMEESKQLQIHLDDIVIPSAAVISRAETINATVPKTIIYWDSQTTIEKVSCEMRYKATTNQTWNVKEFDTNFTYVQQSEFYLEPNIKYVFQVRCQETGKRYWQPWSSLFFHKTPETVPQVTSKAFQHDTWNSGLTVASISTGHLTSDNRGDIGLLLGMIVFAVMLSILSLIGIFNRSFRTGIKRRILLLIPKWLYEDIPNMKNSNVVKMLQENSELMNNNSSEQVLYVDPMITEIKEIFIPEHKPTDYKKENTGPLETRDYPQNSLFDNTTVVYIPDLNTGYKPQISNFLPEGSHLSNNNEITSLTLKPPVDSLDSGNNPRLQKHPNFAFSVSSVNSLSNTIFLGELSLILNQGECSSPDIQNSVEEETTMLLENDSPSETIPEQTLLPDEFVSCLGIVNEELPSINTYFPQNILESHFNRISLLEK
Experiment: Inhibition of interleukin-23 receptor in human DB cells assessed as reduction in IL-23-stimulated STAT3 phosphorylation incubated for 30 mins by HTRF assay
Format: cell-based

Example entries and their recorded answers appear below.
CC(=O)N[C@H](C(=O)N[C@@H](CCC(N)=O)C(=O)N[C@H](C(=O)N[C@@H](Cc1c[nH]c2ccccc12)C(=O)N[C@@H](CCC(N)=O)C(=O)N[C@H](C(=O)N[C@@H](Cc1ccc(OCCN)cc1)C(=O)N[C@@H](Cc1ccc2ccccc2c1)C(=O)N[C@@H](CCC(C)C)C(=O)N[C@@H](CCC(=O)O)C(=O)N[C@@H](CC(N)=O)C(=O)N[C@@H](C)C(N)=O)C(C)(C)S)[C@@H](C)O)C(C)(C)S; 10 to 25 nM
CC(=O)NCCCC[C@H](NC(=O)[C@H](CCC(C)C)NC(=O)[C@H](Cc1ccc2ccccc2c1)NC(=O)[C@H](Cc1ccc(OCCN)cc1)NC(=O)[C@@H](NC(=O)[C@H](CCC(N)=O)NC(=O)[C@H](Cc1c[nH]c2ccccc12)NC(=O)[C@@H](NC(=O)[C@H](CCC(N)=O)NC(=O)[C@@H](NC(C)=O)C(C)(C)S)[C@@H](C)O)C(C)(C)S)C(=O)N[C@@H](CC(N)=O)C(=O)NCCC(N)=O; < 10 nM

Now consider the entry below.
The measured IC50 associated with CC(=O)N[C@H](C(=O)N[C@@H](CCC(N)=O)C(=O)N[C@H](C(=O)N[C@@H](Cc1c[nH]c2ccccc12)C(=O)N[C@@H](CCC(N)=O)C(=O)N[C@H](C(=O)N[C@@H](Cc1ccc(OCCN)cc1)C(=O)N[C@@H](Cc1ccc2ccccc2c1)C(=O)NC(C)(C)C(=O)N[C@@H](CCC(=O)O)C(=O)N[C@@H](CC(N)=O)C(=O)N[C@@H](CC(N)=O)C(N)=O)C(C)(C)S)[C@@H](C)O)C(C)(C)S reads < 10 nM
